Reference source for all entries: the supplement of paper PMC11865577

This section presents sequences with their documented pull-down binding Z-score values.
Tested on: TO-N3-2 (biotin conjugate)
measurementProtocol: pull-down binding Z-score (relative to library population); higher = stronger binding
testContext: RNA library: Library-2
Please reply with the number alone, leaving off any unit.

monomerSequence | pull-down binding Z-score
UCUUCCCAGAAUUGGGAAAA [hsa-mir-320c-2] | -1.68
AGUGCAGUAUGGUGAAGUCAAUCUGUAAU [hsa-mir-590] | 0.424
UUUUCCCUUUCUCUUGCCCUGAAA [hsa-mir-4509-1_4509-3_4509-2] | -0.219
UGUUCAUUCACAUGAUCAUAAGUGGACA [hsa-mir-4643] | -0.251
GUUUCUGUUGUCUGAAAGGAAAGAAAG [hsa-mir-520e] | 0.25

# evaluate next
-- ask Recorded pull-down binding Z-score for UGAGCUGUGAUGUUGCUCUCGAGCUGG [hsa-mir-769] , please?
-- reply 1.27

###

System: TO-3-N3-2 (biotin conjugate)
measurementProtocol: pull-down binding Z-score (relative to library population); higher = stronger binding
testContext: RNA library: Library-2
This section presents sequences with their documented pull-down binding Z-score values.

monomerSequence | pull-down binding Z-score
CAAGAGAAGUGGGUUUUGUCGUGCCUGGUUUGCCUGGCACGAUAUUACGCACAACUAAUG | -0.209
CAUUGUAACAUGAUAGUG [hsa-mir-4264] | -0.295
CAGGUGUUCUUAAAAUCACCUG [hsa-mir-875] | -0.143

-- ask Recorded pull-down binding Z-score for UCUUUGGUAAUAAGGUUUGGCAAAGA [hsa-mir-576] , please?
-- reply 0.625

-- ask Recorded pull-down binding Z-score for AAAUAGUUUCUAUCAAAAUAGUUU [hsa-mir-3668] , please?
-- reply -0.362

-- ask Recorded pull-down binding Z-score for GAUUUGGCUACUAACAAUC [SHAPE_invitro_SARS-CoV-2_Motif_40] , please?
-- reply 0.126

###

Tested on: G-clamp-N3 (biotin conjugate)
measurementProtocol: pull-down binding Z-score (relative to library population); higher = stronger binding
testContext: RNA library: Library-1 (pre-miRNA loops + repeats)
propertyName: pull-down binding Z-score
Please reply with the number alone, leaving off any unit.

monomerSequence | system | propertyName | observedValue
AUCUGAUGUUGAAUACUCUUUAAGU [hsa-mir-1245a] | G-clamp-N3 (biotin conjugate) | pull-down binding Z-score | -1.01
CUCAGGAAUUGGAUAAGCUUUUCUGAG [hsa-mir-5194] | G-clamp-N3 (biotin conjugate) | pull-down binding Z-score | 0.541
UGUUUCUUUAAUGAGGACGAAACA [hsa-mir-329-1] | G-clamp-N3 (biotin conjugate) | pull-down binding Z-score | 1.67
CUCAUGAUAUGUUUGCCCCAUCAGCGUGUCACGAG [hsa-mir-3616] | G-clamp-N3 (biotin conjugate) | pull-down binding Z-score | 0.251

# evaluate next
-- ask API: value(readout= pull-down binding Z-score, system= G-clamp-N3 (biotin conjugate), query= CUCAGAGGGCUGAAGUGGUUGUGGGGAGGGGCUUCUGGG [hsa-mir-4296] )
-- reply 1.39

###

Tested on: TO-N3-2 (biotin conjugate)
measurementProtocol: pull-down binding Z-score (relative to library population); higher = stronger binding
testContext: RNA library: Library-2
propertyName: pull-down binding Z-score
Please reply with the number alone, leaving off any unit.

monomerSequence | propertyName | observedValue
UUGGCGUAGUGAAAUAUAUAUUAAACACCAA [hsa-mir-16-2] | pull-down binding Z-score | 0.0267
UAAAGCCACGUAUAAACCAAAUACCUGGUGUAUACGUUGUCUUUG | pull-down binding Z-score | -0.691
UCCGAUUUACAGGA [DMSMaPseq_invitro_SARS-CoV-2_Motif_227] | pull-down binding Z-score | -0.256
GAGCCUUAAAGGAUGAGGUA [hsa-mir-4280] | pull-down binding Z-score | 0.54
GCUCAAGCCACAGCAGGGUGUUUAGCGCUCUUCAGUGGCUCCAG [hsa-mir-1203] | pull-down binding Z-score | 1.14
CUGUGGUCUAACCUUUCCCAUCU [hsa-mir-6828] | pull-down binding Z-score | 0.334
UAGGAGCUGUGCCUCCUGGCCUAUUCCUGUUCGUG [hsa-mir-8056] | pull-down binding Z-score | 0.623
GUCAUUUUUCUGUGACUGCACAUGGC [hsa-mir-3136] | pull-down binding Z-score | -0.214
UUUUAGAA [hsa-mir-4443] | pull-down binding Z-score | -1.35
UGCUGUUGGAGACUCGAUUGUUGGUGACAGCGAAAGAACGAUAACAAA [hsa-mir-3655] | pull-down binding Z-score | 1.04

-- ask Recorded pull-down binding Z-score for GCGCUGCCAGAAACUGGCAAAAGCGC [bulge-AAA] , please?
-- reply -0.689

-- ask Recorded pull-down binding Z-score for AUGUCUCAGGUCCCCAGCUGAGUCAA [hsa-mir-6513] , please?
-- reply 0.47

-- ask Recorded pull-down binding Z-score for UGCCAUUUGUCAUGAUGGAAAAGCACACUUUCCUCGUGAAGGUGUCUUUGUUUCAAAUGGCA [SHAPE_invivo_SARS-CoV-2_Motif_465] , please?
-- reply -0.463

###

System: TO-3-N3 (biotin conjugate)
measurementProtocol: pull-down binding Z-score (relative to library population); higher = stronger binding
testContext: RNA library: Library-2
Kindly return t if reported pull-down binding Z-score is no lower than -0.09; return f if it is lower.

monomerSequence | classAssignment
GUCAGUCCCAAUCUGAAUCCCACCAAAAUAGGUGGUAGAGGGUUGC [hsa-mir-4290] | f
UGAGUUUA [hsa-mir-451a] | f
CCUUCGCUUUAUUUGUGACGAAUC [hsa-mir-154] | f
CAUGCAGCAUGCUUGUCUG [hsa-mir-767] | f
UAUAACAAUACUAGAUGGAAUUUCACAGUAUUCACUGAGACUCAUUGAUGCUAUGAUGUUCACAUCUGAUUUGGCUACUAACAAUCUAGUUGUA | f
GUUUCGGAAGAGAC | f

-- ask Could you tell me if the measured pull-down binding Z-score of GCAAGCUUCGAUAAUUUUAAGUUUGU [SHAPE_invitro_SARS-CoV-2_Motif_120] reaches -0.09 or more?
-- reply t

-- ask Could you tell me if the measured pull-down binding Z-score of GUUUAUUUUGUAGC [hsa-mir-4317] reaches -0.09 or more?
-- reply t

-- ask Could you tell me if the measured pull-down binding Z-score of GCGUCGCUUCUCCCUAAUGUUGCC [hsa-mir-6781] reaches -0.09 or more?
-- reply f

-- ask Could you tell me if the measured pull-down binding Z-score of UGUUGGCAGCCCAAGAUGACA [hsa-mir-4686] reaches -0.09 or more?
-- reply t

###

System: TO-3-N3 (biotin conjugate)
measurementProtocol: pull-down binding Z-score (relative to library population); higher = stronger binding
testContext: RNA library: Library-2
Kindly return true if reported pull-down binding Z-score is no lower than -0.2; return false if it is lower.

monomerSequence | system | classAssignment
AUGGUUCCUAUUCUGAUCAAUAAACAUGGUUUGAGCCUAGUUACAAUGAUCUAAAAUUCACGGUCCAA [hsa-mir-548o] | TO-3-N3 (biotin conjugate) | false

Let us examine a further case.
-- ask Could you tell me if the measured pull-down binding Z-score of UCGUCAGUGUUUGA [hsa-mir-8073] reaches -0.2 or more?
-- reply false

###

System: TO-N3-2 (biotin conjugate)
measurementProtocol: pull-down binding Z-score (relative to library population); higher = stronger binding
testContext: RNA library: Library-2
This section presents sequences with their documented pull-down binding Z-score values.
Please reply with the number alone, leaving off any unit.

-- ask Recorded pull-down binding Z-score for UAGGUGUUUUAAUGUCUAAUUUAGGCAUGCCUUCUUACUGUACUGGUUACAGAGAAGGCUAUUUGAACUCUA , please?
-- reply -0.982

-- ask Recorded pull-down binding Z-score for UGUGCCUUGCCUUUCCUUUGGCACA [hsa-mir-4438] , please?
-- reply -0.0304

-- ask Recorded pull-down binding Z-score for GGGUUCAAUAGAUUGCUUUAGCUGAAGCAAGCCU [hsa-mir-8054] , please?
-- reply -0.201

###

Tested on: TO-N3-2 (biotin conjugate)
measurementProtocol: pull-down binding Z-score (relative to library population); higher = stronger binding
testContext: RNA library: Library-2
This section presents sequences with their documented pull-down binding Z-score values.

Study these solved cases before continuing.
monomerSequence | observedValue
UUUUCUGGGA [hsa-mir-4456] | -0.251
CAACGUAAGUUG [DMSMaPseq_invitro_SARS-CoV-2_Motif_215] | -1.6
UUGGUGACAGCAGCAGUAGAGUUGCCAG [hsa-mir-6501] | 0.272
CCUCCCCCAGUGCCAGG [hsa-mir-3196] | 0.352

-- ask Recorded pull-down binding Z-score for UUUACUUUUGGCCUCAAGUCAUUGCAGUAAA [hsa-mir-4796] , please?
-- reply -1.18

-- ask Recorded pull-down binding Z-score for AGUGAGGCGUCGGCUGUGUUUCU [hsa-mir-2110] , please?
-- reply 1.03

-- ask Recorded pull-down binding Z-score for UGGUUUGACACAGAGCUAAAUCA [hsa-mir-5007] , please?
-- reply -0.172

-- ask Recorded pull-down binding Z-score for CAGGAGUGGACACCUG [hsa-mir-1246] , please?
-- reply -0.454

-- ask Recorded pull-down binding Z-score for GGAGGAGGAGGAGGAGGAGGAGGAGGAGGAGGAGGAGGAGGAGGAGGA [G4_r(GGA)16] , please?
-- reply 3.35

-- ask Recorded pull-down binding Z-score for GAGGUAAGUACGAUACUUACCUG [U1snRNP5ss-7] , please?
-- reply -0.876

-- ask Recorded pull-down binding Z-score for AACCCUCACCUUAUGGGUU , please?
-- reply -1.48
